The compounds below have reported Offscreen_42hr for parent strain (SAWy518).
quantity.name: Offscreen_42hr

[
  {
    "compound": "C/C=C(/C(=C/C)c1ccc(O)cc1)c1ccc(O)cc1",
    "study.system": "parent strain (SAWy518)",
    "quantity.name": "Offscreen_42hr",
    "recorded.number": 0.9599
  },
  {
    "compound": "O=C(O)Cc1cc(I)c(Oc2cc(I)c(O)c(I)c2)c(I)c1",
    "study.system": "parent strain (SAWy518)",
    "quantity.name": "Offscreen_42hr",
    "recorded.number": 0.9359
  },
  {
    "compound": "O=C1c2ccc(Nc3ccc(F)cc3F)cc2CCc2ccc(OC[C@H](O)CO)cc21 [Skepinone-L]",
    "study.system": "parent strain (SAWy518)",
    "quantity.name": "Offscreen_42hr",
    "recorded.number": 0.985
  },
  {
    "compound": "c1ccc2c(c1)Nc1ccccc1S2",
    "study.system": "parent strain (SAWy518)",
    "quantity.name": "Offscreen_42hr",
    "recorded.number": 0.9316
  },
  {
    "compound": "Cc1ccc(C(=O)Nc2ccc(CN3CCN(C)CC3)c(C(F)(F)F)c2)cc1C#Cc1cnc2[nH]ncc2c1",
    "study.system": "parent strain (SAWy518)",
    "quantity.name": "Offscreen_42hr",
    "recorded.number": 1.0006
  },
  {
    "compound": "O=C(/C=C/c1ccc(O)cc1)CC(=O)/C=C/c1ccc(O)cc1",
    "study.system": "parent strain (SAWy518)",
    "quantity.name": "Offscreen_42hr",
    "recorded.number": 0.9569
  },
  {
    "compound": "O=C1NC(=O)c2c1c(-c1ccccc1)cc1[nH]c3ccc(O)cc3c21",
    "study.system": "parent strain (SAWy518)",
    "quantity.name": "Offscreen_42hr",
    "recorded.number": 0.9556
  },
  {
    "compound": "N#CC[C@@H](C1CCCC1)n1cc(-c2ncnc3[nH]ccc23)cn1",
    "study.system": "parent strain (SAWy518)",
    "quantity.name": "Offscreen_42hr",
    "recorded.number": 0.9411
  },
  {
    "compound": "CCN(CC)C(=S)SSC(=S)N(CC)CC [Disulfiram]",
    "study.system": "parent strain (SAWy518)",
    "quantity.name": "Offscreen_42hr",
    "recorded.number": 0.7775
  }
]

###

The molecules below have reported OffScreen_percentage for parent strain (SAWy518).
quantity.name: OffScreen_percentage (percentage)

[
  {
    "molecule": "CC1(C)C=Cc2c(c3c(c4c(=O)c(-c5ccc(O)c(O)c5)coc24)OC(C)(C)CC3)O1",
    "recorded.number": 94.8327
  },
  {
    "molecule": "O=C(O)Cn1c(C(=O)Nc2nc(-c3ccccc3Cl)cs2)cc2ccccc21",
    "recorded.number": 98.4758
  },
  {
    "molecule": "O=C(/C=C/c1ccc(O)cc1)c1ccc(O)cc1O",
    "recorded.number": 101.326
  },
  {
    "molecule": "COc1cccc2c1[C@@H]1CN(CCCCn3c(=O)[nH]c4c(sc5ncc(-c6ccccc6)nc54)c3=O)C[C@@H]1CO2",
    "recorded.number": 97.5341
  },
  {
    "molecule": "CS(=O)(=O)c1ccc(C2=C(c3ccccc3)C(=O)OC2)cc1 [Rofecoxib, reference compound]",
    "recorded.number": 103.916
  },
  {
    "molecule": "O=C1Nc2ccc(Cl)cc2[C@@](C#CC2CC2)(C(F)(F)F)O1",
    "recorded.number": 96.803
  },
  {
    "molecule": "CCCCC1=NC2(CCCC2)C(=O)N1Cc1ccc(-c2ccccc2-c2nnn[nH]2)cc1",
    "recorded.number": 100.942
  },
  {
    "molecule": "O=C(/C=C/c1ccc(O)cc1)CC(=O)/C=C/c1ccc(O)cc1",
    "recorded.number": 99.4424
  },
  {
    "molecule": "C[C@@H]1CC[C@@]2(OC1)O[C@H]1[C@@H](O)[C@H]3[C@@H]4CC[C@H]5C[C@@H](O[C@@H]6O[C@H](CO)[C@H](O[C@@H]7O[C@H](CO)[C@@H](O)[C@H](O[C@@H]8OC[C@@H](O)[C@H](O)[C@H]8O)[C@H]7O[C@@H]7O[C@H](CO)[C@H](O)[C@H](O[C@@H]8O[C@H](CO)[C@@H](O)[C@H](O)[C@H]8O)[C@H]7O)[C@H](O)[C@H]6O)[C@H](O)C[C@]5(C)[C@H]4CC[C@]3(C)[C@H]1[C@@H]2C",
    "recorded.number": 103.408
  },
  {
    "molecule": "CC1=C(CC(=O)O)c2cc(F)ccc2/C1=C\\c1ccc([S+](C)[O-])cc1 (centres unmarked) [Sulindac, reference compound]",
    "recorded.number": 103.073
  },
  {
    "molecule": "CCN(CC)CCNC(=O)c1c(C)[nH]c(/C=C2\\C(=O)Nc3ccc(F)cc32)c1C.O=C(O)C[C@H](O)C(=O)O [Sunitinib Malate]",
    "recorded.number": 101.351
  },
  {
    "molecule": "O=C(O)Cc1cc(I)c(Oc2cc(I)c(O)c(I)c2)c(I)c1",
    "recorded.number": 101.202
  },
  {
    "molecule": "CCCc1c(-c2ccc(O)cc2)nn(-c2ccc(O)cc2)c1-c1ccc(O)cc1",
    "recorded.number": 98.9963
  },
  {
    "molecule": "CC/C(=C(/CC)c1ccc(O)cc1)c1ccc(O)cc1",
    "recorded.number": 102.565
  }
]

###

Tested on: parent strain (SAWy518)
Binary classification by OffScreen_percentage, with 100 percentage as an inclusive lower bound for yes (1); all other cases are no (0).

[
  {
    "compound": "COc1ncc(-c2ccc3nccc(-c4ccnnc4)c3c2)cc1NS(=O)(=O)c1ccc(F)cc1F [GSK2126458]",
    "study.system": "parent strain (SAWy518)",
    "label": "no (0)"
  },
  {
    "compound": "COc1cc(C)c2c(=O)cc(-c3ccccc3)oc2c1 [Methoxyvone]",
    "study.system": "parent strain (SAWy518)",
    "label": "no (0)"
  },
  {
    "compound": "N#CC(c1ccc(Cl)cc1)c1c(Cl)cc(-n2ncc(=O)[nH]c2=O)cc1Cl (stereo not drawn) [Diclazuril]",
    "study.system": "parent strain (SAWy518)",
    "label": "no (0)"
  },
  {
    "compound": "COc1ccc([C@@H](C)C(=O)c2ccc(O)cc2O)cc1 [Angolesin]",
    "study.system": "parent strain (SAWy518)",
    "label": "no (0)"
  },
  {
    "compound": "O=C1c2ccc(Nc3ccc(F)cc3F)cc2CCc2ccc(OC[C@H](O)CO)cc21 [Skepinone-L]",
    "study.system": "parent strain (SAWy518)",
    "label": "no (0)"
  },
  {
    "compound": "CCOC(=O)[C@H](C)C[C@@H](Cc1ccc(-c2ccccc2)cc1)NC(=O)CCC(=O)O [AHU377]",
    "study.system": "parent strain (SAWy518)",
    "label": "yes (1)"
  }
]

###

Tested on: parent strain (SAWy518)
Where a name gives a salt, the structure may show the parent alone.
quantity.name: Offscreen_24hr

[
  {
    "molecule": "CC(Cc1ccc(O)c(O)c1)C(C)Cc1ccc(O)c(O)c1 (stereo not drawn) [Nordihydroguaiaretic acid, reference compound]",
    "recorded.number": 0.9084
  },
  {
    "molecule": "Nc1[nH]c(=O)ncc1F",
    "recorded.number": 0.8771
  },
  {
    "molecule": "O=C(CCc1ccc(O)cc1)c1c(O)cc(O)cc1O",
    "recorded.number": 0.892
  },
  {
    "molecule": "CCOC(=O)[C@H](C)C[C@@H](Cc1ccc(-c2ccccc2)cc1)NC(=O)CCC(=O)O",
    "recorded.number": 0.9243
  },
  {
    "molecule": "O=C1NC(=O)c2c1c(-c1ccccc1)cc1[nH]c3ccc(O)cc3c21",
    "recorded.number": 0.8873
  },
  {
    "molecule": "CC(=O)[C@]1(O)Cc2c(O)c3c(c(O)c2[C@@H](O[C@H]2C[C@H](N)[C@H](O)[C@H](C)O2)C1)C(=O)c1ccccc1C3=O [Idarubicin HCl]",
    "recorded.number": 0.1891
  },
  {
    "molecule": "CC1(C)O[C@@H]2C[C@H]3[C@@H]4C[C@H](F)C5=CC(=O)C=C[C@]5(C)[C@H]4[C@@H](O)C[C@]3(C)[C@]2(C(=O)CO)O1 [Flunisolide]",
    "recorded.number": 0.8893
  },
  {
    "molecule": "CC[N+](CC)(CC)CCOc1ccc(/C=C/c2ccccc2)cc1",
    "recorded.number": 0.7684
  },
  {
    "molecule": "CC1(C)C=Cc2c(c3c(c4c(=O)c(-c5ccc(O)c(O)c5)coc24)OC(C)(C)CC3)O1",
    "recorded.number": 0.8834
  },
  {
    "molecule": "C=CC(C1=CC(=O)C(OC)=CC1=O)c1ccc(O)cc1 (stereo not drawn) [Dalbergione,4-methoxy-4-hydroxy-]",
    "recorded.number": 0.9183
  },
  {
    "molecule": "CC1=C(C)C(=O)C(C(CCCCCC(=O)O)c2ccccc2)=C(C)C1=O (stereo not drawn)",
    "recorded.number": 0.8726
  },
  {
    "molecule": "CCOC(=O)[C@@H](N)Cc1ccc(-c2cc(O[C@H](c3ccc(Cl)cc3-n3ccc(C)n3)C(F)(F)F)nc(N)n2)cc1.O=C(O)CNC(=O)c1ccccc1 [Telotristat Etiprate]",
    "recorded.number": 0.9107
  },
  {
    "molecule": "COc1ccc2c(c1)OCc1c-2oc2cc(OC)ccc12 [Dehydrovariabilin]",
    "recorded.number": 0.8766
  },
  {
    "molecule": "CCc1oc2ccccc2c1C(=O)c1cc(Br)c(O)c(Br)c1",
    "recorded.number": 0.7137
  },
  {
    "molecule": "Cc1cc(C(C)(C)CC(C)(C)C)ccc1OCCOCC[N+](C)(C)Cc1ccccc1",
    "recorded.number": 0.875
  },
  {
    "molecule": "O=C(/C=C/c1ccc(O)cc1)c1ccc(O)cc1O",
    "recorded.number": 0.9161
  },
  {
    "molecule": "O=C(Nc1cc(C(F)(F)F)cc(C(F)(F)F)c1)c1cc(Cl)ccc1O",
    "recorded.number": 0.2933
  },
  {
    "molecule": "C=CC(C1=CC(=O)C=CC1=O)c1ccccc1 (stereo not drawn)",
    "recorded.number": 0.9214
  }
]
